Ref: the supplement of paper PMC6555819

Reported PBM binding z-score values follow for various sequences
System: PXR:RXRa (NR concentration 270 nM, RXRa partner concentration 90 nM)
EXPERIMENT DESCRIPTION: PBM binding z-score (relative to random genomic background probes); higher = stronger binding; sequences stand for … in GC…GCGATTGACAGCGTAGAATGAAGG
Answer with a bare number; do not write a unit.

Below are worked cases with known answers.
| RECORD SEQUENCE | TARGET OF ASSAY | MEASURED PARAMETER | QUANTITATIVE RESULT |
| --- | --- | --- | --- |
| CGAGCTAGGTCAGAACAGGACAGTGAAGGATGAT | PXR:RXRa (NR concentration 270 nM, RXRa partner concentration 90 nM) | PBM binding z-score | 0.798 |
| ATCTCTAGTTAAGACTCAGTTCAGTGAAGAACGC | PXR:RXRa (NR concentration 270 nM, RXRa partner concentration 90 nM) | PBM binding z-score | 1.23 |
| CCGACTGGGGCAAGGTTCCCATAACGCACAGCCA | PXR:RXRa (NR concentration 270 nM, RXRa partner concentration 90 nM) | PBM binding z-score | -0.613 |
| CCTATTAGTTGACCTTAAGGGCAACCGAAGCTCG | PXR:RXRa (NR concentration 270 nM, RXRa partner concentration 90 nM) | PBM binding z-score | 4.4 |
| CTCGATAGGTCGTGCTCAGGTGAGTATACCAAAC | PXR:RXRa (NR concentration 270 nM, RXRa partner concentration 90 nM) | PBM binding z-score | 0.623 |

Lookup: Lab note: need PBM binding z-score with PXR:RXRa (NR concentration 270 nM, RXRa partner concentration 90 nM) for entry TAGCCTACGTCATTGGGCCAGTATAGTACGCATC , please look it up.
Found: -0.757

Lookup: So what PBM binding z-score did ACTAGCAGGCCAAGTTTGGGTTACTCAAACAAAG get with PXR:RXRa (NR concentration 270 nM, RXRa partner concentration 90 nM)?
Found: -0.324
